Every entry's value here was drawn from patent US20230057987A1.

molecular target: T1, similar peptide SP-05-0005, source protein not stated peptide on HLA-A*02:01 (human); experiment: killing
T1 peptide: KIEEFLEAV
readout_kind: binding result

binder	readout_kind	result
TCR-9 (TCR, V domains shown) Valpha: EDVEQSLFLSVREGDSSVINCTYTDSSSTYLYWYKQEPGAGLQLLTYIFSNMDMKQDQRLTVLLNKKDKHLSLRIADTQTGDSAIYFCAEKETAGNKLTFGGGTRVLVKP Vbeta: EPEVTQTPSHQVTQMGQEVILRCVPISNHLYFYWYRQILGQKVEFLVSFYNNEISEKSEIFDDQFSVERPDGSNFTLKIRSTKLEDSAMYFCASTVQSPRTNEQFFGPGTRLTVL	binding result	no recognition
TCR-2 (TCR, V domains shown) Valpha: QKITQTQPGMFVQEKEAVTLDCTYDTSDQSYGLFWYKQPSSGEMIFLIYQGSYDEQNATEGRYSLNFQKARKSANLVISASQLGDSAMYFCAMREGSDAGGTSYGKLTFGQGTILTVHP Vbeta: GVIQSPRHLIKEKRETATLKCYPIPRHDTVYWYQQGPGQDPQFLISFYEKMQSDKGSIPDRFSAQQFSDYHSELNMSSLELGDSALYFCASSPSTGRLNTEAFFGQGTRLTVV	binding result	no recognition
